All values here come from patent US9765087B2.

What pEC50 was measured for each of the following?
# System: HCV 1a genotype replicon
# Experiment description: HCV replicon assay (qRT-PCR or luciferase), genotype 1a
# Assay type: cell-based
# Condition details: Hepatitis C virus, Table 12, range class, read-out: 1a EC50 Range
pEC50: −log10 of the molar value.

• COC(=O)N[C@H](C(=O)N1CC2(CC2)C[C@H]1c1ncc(-c2ccc(C#Cc3ccc4nc([C@@H]5CC6(CC6)CN5C(=O)[C@@H](N)C(C)C)[nH]c4c3)cc2)[nH]1)C(C)C [Example 556] = < 8.00
• COC(=O)N[C@H](C(=O)N1CC2(CC2)C[C@H]1c1nc2ccc(C#Cc3ccc(-c4cnc([C@@H]5C[C@H]6C[C@H]6N5C(=O)[C@H](NC(=O)OC)c5ccccc5)[nH]4)cc3)cc2[nH]1)C(C)C [Example 659] = > 9.00

Let's switch to this compound now.
Enquiry: So what does the record say about pEC50 for COC(=O)N[C@H](C(=O)N1CC2(CC2)C[C@H]1c1ncc(-c2ccc(C#Cc3ccc4nc([C@@H]5CC6(CC6)CN5C(=O)[C@@H](NC(=O)OC)c5ccccc5)[nH]c4c3)cc2)[nH]1)c1ccccc1 [Example 609] ?
Return: 8.00 to 9.00

###

# Test system: HCV 1a genotype replicon
# Experiment description: HCV replicon assay (qRT-PCR or luciferase), genotype 1a
# Assay type: cell-based
# Condition details: Hepatitis C virus, Table 12, numeric values, read-out: 1a EC50
Quantity measured: pEC50
Give bare numbers, as −log10 of the molar value.

Some solved entries appear below for comparison.
- COC(=O)N[C@H](C(=O)N1CC2(CC2)C[C@H]1c1nc2ccc(C#Cc3ccc(-c4cnc([C@@H]5CCCN5C(=O)[C@H](NC(=O)OC)c5ccoc5)[nH]4)cc3)cc2[nH]1)C(C)C: 9.69
- COC(=O)N[C@H](C(=O)N1C[C@H](F)C[C@H]1c1nc(-c2ccc(C#Cc3ccc4[nH]c([C@@H]5C[C@@]6(CCCO6)CN5C(=O)[C@@H](NC(=O)OC)C(C)C)nc4c3)cc2)c[nH]1)C(C)C: 9.74

Dear colleague, could you please provide pEC50 for the compounds listed below?
1. COC(=O)N[C@H](C(=O)N1CC2(CC2)C[C@H]1c1nc(-c2ccc(C#Cc3ccc4[nH]c([C@@H]5CC6(CC6)CN5C(=O)[C@@H](NC(=O)OC)C(C)C)nc4c3)cc2)c(-c2ccccc2)[nH]1)C(C)C
2. COC(=O)N[C@H](C(=O)N1CC2(CC2)C[C@H]1c1nc(-c2ccc(C#Cc3ccc4[nH]c([C@@H]5C[C@]6(CCCO6)CN5C(=O)[C@@H](NC(=O)OC)C(C)C)nc4c3)cc2)c[nH]1)C(C)C
3. COC(=O)N[C@H](C(=O)N1CC2(CC2)C[C@H]1c1ncc(-c2ccc(C#Cc3ccc4nc([C@@H]5CC6(CC6)CN5C(=O)[C@@H](NC(=O)OC)C5CCOCC5)[nH]c4c3)cc2)[nH]1)C(C)C
4. COC(=O)N[C@H](C(=O)N1CC2(CC2)C[C@H]1c1ncc(-c2ccc(C#Cc3ccc4nc([C@@H]5C[C@@]6(CCCCO6)CN5C(=O)[C@@H](NC(=O)OC)C(C)C)[nH]c4c3)cc2)[nH]1)C(C)C
5. COC(=O)N[C@H](C(=O)N1CC2(CC2)C[C@H]1c1nc2ccc(C#Cc3ccc(-c4cnc([C@@H]5CCCN5C(=O)[C@H](NC(=O)OC)c5cccc(OC)c5)[nH]4)cc3)cc2[nH]1)C(C)C
6. COC(=O)N[C@H](C(=O)N1CC2(CC2)C[C@H]1c1nc2ccc(C#Cc3ccc(-c4cnc([C@@H]5CCCN5C(=O)[C@H](NC(=O)OC)c5cccs5)[nH]4)cc3)cc2[nH]1)C(C)C

Return:
1: 9.43; 2: 8.87; 3: 10.77; 4: 10.46; 5: 9.64; 6: 9.53

Enquiry: Lab note: need pEC50 with HCV 1a genotype replicon for entry COC(=O)N[C@@H](CC(N)=O)C(=O)N1CCC[C@H]1c1ncc(-c2ccc(C#Cc3ccc4nc([C@@H]5CC6(CC6)CN5C(=O)[C@@H](NC(=O)OC)C(C)C)[nH]c4c3)cc2)[nH]1 , please look it up.
Return: 9.16

###

# Tested on: HCV 1a genotype replicon
# Experiment description: HCV replicon assay (qRT-PCR or luciferase), genotype 1a
# Type: cell-based
# Condition details: Hepatitis C virus, Table 12, range class, read-out: 1a EC50 Range
# Description: HCV replicon cell lines (kindly provided by R. Bartenschlager) isolated from colonies as described by Lohman et. al. (Lohman et al. (1999) Science 285: 110-113, expressly incorporated by reference in its entirety) and used for all experiments. The HCV replicon has the nucleic acid sequence set forth in EMBL Accession No.: AJ242651, the coding sequence of which is from nucleotides 1801 to 8406. […]
Quantity measured: EC50

- COC(=O)N[C@H](C(=O)N1CC2(CC2)C[C@H]1c1ncc(-c2ccc(C#Cc3ccc4nc([C@@H]5CC6(CC6)CN5C(=O)[C@H](NC(=O)OC)c5cccc(F)c5)[nH]c4c3)cc2)[nH]1)C(C)C [Example 653]: < 1 nM
- COC(=O)N[C@H](C(=O)N1CC2(CC2)C[C@H]1c1ncc(-c2ccc(C#Cc3ccc4nc([C@@H]5CC6(CC6)CN5C(=O)[C@H](NC(=O)OC)c5cccc(Cl)c5)[nH]c4c3)cc2)[nH]1)C(C)C [Example 584]: < 1 nM

Dear colleague, could you please provide EC50 for the molecules listed below?
1. CC[C@H](C)[C@H](NC(=O)OC)C(=O)N1CC2(CC2)C[C@H]1c1ncc(-c2ccc(C#Cc3ccc4nc([C@@H]5CC6(CC6)CN5C(=O)[C@@H](NC(=O)OC)C(C)C)[nH]c4c3)cc2)[nH]1 [Example 674]
2. COC(=O)N[C@H](C(=O)N1CC2(CC2)C[C@H]1c1nc2ccc(C#Cc3ccc(-c4cnc([C@@H]5CC6(CC6)CN5C(=O)[C@@H](NC(=O)OC)C5CCOCC5)[nH]4)cc3)cc2[nH]1)C(C)C [Example 658]
3. COC(=O)N[C@H](C(=O)N1C[C@@H]2C[C@@H]2[C@H]1c1nc2cc(C#Cc3ccc(-c4c[nH]c([C@@H]5CCCN5C(=O)[C@@H](NC(=O)OC)C(C)C)n4)cc3)ccc2[nH]1)C(C)C [Example 690]

Return:
["< 1 nM", "< 1 nM", "1 to 10 nM"]

###

What pEC50 was measured for each of the following?
# Tested on: HCV 1b genotype replicon
# Experiment description: HCV replicon assay (qRT-PCR or luciferase), genotype 1b
# Type: cell-based
# Condition details: Hepatitis C virus, Table 12, numeric values, read-out: 1b EC50
Numbers only, as −log10 of the molar value.

Some solved entries appear below for comparison.
* COC(=O)N[C@H](C(=O)N1CC2(CC2)C[C@H]1c1nc(-c2ccc(-c3ccc4[nH]c([C@@H]5CC6(CC6)CN5C(=O)[C@@H](NC(=O)OC)C(C)C)nc4c3)cc2)c[nH]1)C(C)C | 10.52
* COC(=O)N[C@H](C(=O)N1CC2(CC2)C[C@H]1c1nc(-c2ccc(C#Cc3ccc4[nH]c([C@@H]5C[C@@]6(CCOC6)CN5C(=O)[C@@H](NC(=O)OC)C(C)C)nc4c3)cc2)c[nH]1)C(C)C | 11.10
* COC(=O)N[C@H](C(=O)N1CC2(CC2)C[C@H]1c1ncc(-c2ccc(C#Cc3ccc4nc([C@@H]5C[C@]6(CCCOC6)CN5C(=O)[C@@H](NC(=O)OC)C(C)C)[nH]c4c3)cc2)[nH]1)C(C)C | 11.10
* COC(=O)N[C@H](C(=O)N1CC2(CC2)C[C@H]1c1nc2cc(C#Cc3ccc(-c4coc([C@@H]5CC6(CC6)CN5C(=O)[C@@H](NC(=O)OC)C(C)C)n4)cc3)ccc2[nH]1)C(C)C | 9.80
* COC(=O)N[C@H](C(=O)N1CC2(CC2)C[C@H]1c1nc2ccc(C#Cc3ccc(-c4cnc([C@@H]5CC6(CC6)CN5C(=O)[C@H](NC(=O)OC)c5ccccc5)[nH]4)cc3)cc2[nH]1)C(C)C (stereo in doubt) | 11.10
* COC(=O)N[C@H](C(=O)N1CCC[C@H]1c1nc(-c2ccc(C#Cc3ccc4[nH]c([C@@H]5CC6(CCOCC6)CN5C(=O)[C@@H](NC(=O)OC)C(C)C)nc4c3)cc2)c[nH]1)C(C)C | 11.05

Dear colleague, could you please provide pEC50 for the compounds listed below?
1. COC(=O)N[C@H](C(=O)N1C[C@H](C)C[C@H]1c1ncc(-c2ccc(C#Cc3ccc4nc([C@@H]5C[C@@]6(CCCO6)CN5C(=O)[C@@H](NC(=O)OC)C(C)C)[nH]c4c3)cc2)[nH]1)C(C)C
2. COC(=O)N[C@H](C(=O)N1CC2(CC2)C[C@H]1c1ncc(-c2ccc(C#Cc3ccc4nc([C@@H]5C[C@]6(CCOC6)CN5C(=O)[C@@H](NC(=O)OC)C(C)C)[nH]c4c3)cc2)[nH]1)C(C)C
3. COC(=O)N[C@H](C(=O)N1CC2(CC2)C[C@H]1c1nc2ccc(C#Cc3ccc(-c4cnc([C@@H]5CC6(CC6)CN5C(=O)[C@@H](NC(=O)OC)[C@@H](C)OCCF)[nH]4)cc3)cc2[nH]1)C(C)C

Return:
1: 11.05; 2: 10.96; 3: 10.74
